Values were extracted from paper PMC8774657.

assay: Biosimilar mucus-permeating assay, in vitro cell-free model; format: in vitro ADME; details: cell-free biosimilar mucus model, peptide 1 mM, PBS pH 7.2, 25 ℃, OPA method; verbal grade
Where a SMILES comes first, the peptide text is derived from it.
Reported Metric: Mucus permeability (in words)

Some entries whose results are on file:
>  <Compound>
CSCC[C@H](N)C(=O)N[C@@H](C)C(=O)N[C@@H](CC(N)=O)C(=O)N[C@H](C(=O)O)[C@@H](C)O [Pep2, MANT] (H-MANT-OH)

>  <Mucus permeability (in words)>
low mucus permeability

$$$$
>  <Compound>
CSCC[C@H](NC(=O)[C@@H](N)CCCCN)C(=O)N1CCC[C@H]1C(=O)N[C@H](C(=O)O)C(C)C [Pep5, KMPV] (H-KMPV-OH)

>  <Mucus permeability (in words)>
low mucus permeability

$$$$
>  <Compound>
C[C@@H](O)[C@H](N)C(=O)N[C@@H](CC(N)=O)C(=O)NCC(=O)N[C@@H](CCC(N)=O)C(=O)O [Pep4, TNGQ] (H-TNGQ-OH)

>  <Mucus permeability (in words)>
high mucus permeability

$$$$
>  <Compound>
CC(C)C[C@H](NC(=O)[C@H](CO)NC(=O)[C@H](C)NC(=O)[C@@H]1CCCN1)C(=O)O [Pep6, PASL] (H-PASL-OH)

>  <Mucus permeability (in words)>
high mucus permeability

$$$$

Problem: I would be grateful if you could share the reported Mucus permeability (in words) for CSCC[C@H](NC(=O)[C@@H](N)Cc1ccc(O)cc1)C(=O)N[C@@H](CO)C(=O)N[C@H](C(=O)O)C(C)C [Pep3, YMSV] (H-YMSV-OH) .
Solution: low mucus permeability
